system: MDA-MB-231 breast; test: NCI-60 one-dose screen, 48 h; conditions: 10 µM unless noted
This is part of a sample that, as a whole, favours compounds with a hit. Of some 83,000 tested, about 20% had one in any assay. Active and inactive are the calls of the source. How the source made its calls: active means growth percent below 10; inactive means the rest.
Reply using exactly one outcome from class 1 (active), class 0 (inactive)

Worked cases, answers included:
O=S(=O)(NCCCNc1cc(-c2cn(-c3ccccc3)nc2-c2cccc(O)c2)ccn1)c1ccc(F)cc1 :: class 1
NC1(N)C=CC2=C(C=C1)C1(N)C3=C(C=CC(N)(N)C=C3)N2C2(N)C3=C(C=CC(N)(N)C=C3)N1C1=C2C=CC(N)(N)C=C1 :: class 0
Cc1cc(N(CCNc2ccnc3cc(Cl)ccc23)Cc2ccco2)nc(Cl)n1 :: class 1
Cc1cccc(C)c1NCc1nc(-c2ccccc2)n[nH]1 :: class 0
Cc1ccc(N(CC(=O)Nc2ccc(S(=O)(=O)N3CCC(N4CCCC4)CC3)cc2)S(=O)(=O)c2ccc(Cl)cc2)cc1 :: class 1

// return assay outcome for COc1cc2ncnc(Nc3ccc(OCc4cccc(F)c4)c(Cl)c3)c2cc1NC(=O)C1CCCC1
class 0

// return assay outcome for CCN(CC)CCCCCCNc1ccnc2cc(Cl)ccc12
class 0

###

Exercise: state measured growth for each of the compounds provided.
test system: SF-268 CNS; assay: NCI-60 one-dose screen, 48 h (100 = growth as untreated, 0 = no growth, -100 = all killed); settings: 10 µM unless noted
The panel holds about 83,000 compounds, 20% with a hit somewhere; the sample as a whole holds those more often. The source made the active and inactive calls. The calls were made as follows: active = growth percent below 10; inactive = the rest.

Some compounds with known growth results, for comparison:
O=C(O[C@@H]1Cc2c(O)cc(O)cc2O[C@@H]1c1cc(O)c(O)c(O)c1)c1cc(O)c2c(c1)OCO2 :: 97% (inactive)
COc1ccc(C2=NN(c3nc(-c4ccc(OC)cc4)c(C#N)c(=O)n3C)C(=O)CC2)cc1 :: 100% (inactive)

// moving on: another record for growth
Give reported growth for CCCCC[C@H]1CC=C2C(=O)C(Cl)=C[C@@H]2CC=CCCCC(=O)O[C@@H](CCCCC)CC=C2C(=O)C(Cl)=C[C@@H]2CC=CCCCC(=O)O[C@@H](CCCCC)CC=C2C(=O)C(Cl)=C[C@@H]2CC=CCCCC(=O)O1 (SF-268 CNS)
73.1% [8 µM] (inactive)

###

system: SK-MEL-28 melanoma; experiment: NCI-60 one-dose screen, 48 h (100 = growth as untreated, 0 = no growth, -100 = all killed); settings: 10 µM unless noted
This is part of a sample that, as a whole, favours compounds with a hit. Of some 83,000 tested, about 20% had one in any assay.
The label Yes is reserved for growth strictly under 60%; No covers values equal to or above it.

Worked cases, answers included:
CCC1C(=O)COC1=O (configuration not stated) :: No
O=Cc1nc2ccccc2[nH]1 :: No
Nc1c2c(nc3ccc(Cl)cc13)CC(c1ccccc1)CC2=O (configuration not stated) :: Yes
Cc1cc(N2CCN(C)CC2)nc(N(CCNc2ccnc3cc(Cl)ccc23)Cc2ccco2)n1 :: Yes
COC(=O)c1cc(=O)nc(N/N=C/c2ccc(C)cc2)s1 :: No

Dear reviewer, please state whether O=C1c2ccccc2C(=Cc2ccccc2)c2ccccc21 has growth strictly beneath 60%.
Yes

Dear reviewer, please state whether COc1cccc2c1C(=O)c1c(O)c3c(c(O)c1C2=O)C[C@@](O)(C(=O)CO)C[C@@H]3OC1C[C@H](N)[C@H](O)[C@H](C)O1 (some centres not stated) has growth strictly beneath 60%.
Yes

Dear reviewer, please state whether Cn1cc(-c2nc(-c3c[nH]c4ncccc34)cs2)c2cc(Cl)ccc21 has growth strictly beneath 60%.
No

Dear reviewer, please state whether Cc1ccc(S(=O)(=O)Nc2ccc(-c3cc(-c4cccc(F)c4)c(C#N)c(N)n3)cc2)cc1 has growth strictly beneath 60%.
Yes

Dear reviewer, please state whether CC(=O)OC(C)COc1ccc(-c2ccccc2)cc1 (configuration not stated) has growth strictly beneath 60%.
No

Hey, just so you know, these numbers are from PubChem BioAssay (NCI).
